Tested on: HOP-62 NSCLC
Test: NCI-60 one-dose screen, 48 h (100 = growth as untreated, 0 = no growth, -100 = all killed)
Conditions: 10 µM unless noted
Experimental: Growth inhibition of the HOP-62 human Non-Small Cell Lung tumor cell line is measured as a screen for anti-cancer activity. Cells are grown in 96 well plates and exposed to the test compound for 48 hours. Compounds are tested at a single concentration, which is 10^-5 M for most compounds. The reported endpoint is percent growth (GI% or GIPRCNT), where numbers from 0 - 100% represent growth inhibition, and numbers from -100% - 0 represent cell death. […]
About 83,000 compounds went through this panel and 20% of them were active in at least one assay; those are over-represented in the sample as a whole.
property label: growth (%)
I only need the number, in %, no unit after it.

Some solved entries appear below for comparison.
C=C1C(=O)O[C@H]2[C@H]1CC/C(Cn1cc(-c3ccc(OC)cc3)nn1)=C\CC[C@@]1(C)O[C@@H]21 :: 49.7
Cc1nc([P+](c2ccccc2)(c2ccccc2)c2ccccc2)c(Sc2sc(-c3ccccc3)nc2[P+](c2ccccc2)(c2ccccc2)c2ccccc2)o1 :: 9.57

What growth value was documented for this compound, COc1ccccc1-n1cnc(N)c1C(=O)c1cc(OC)c(OC)c(OC)c1 ?
52.8

Next: C=C1C(=O)O[C@H]2[C@H]1CC/C(COC(=O)N[C@H](Cc1c[nH]c3ccccc13)C(=O)OC)=C\CC[C@@]1(C)O[C@@H]21
64.6

Next: Cc1nn2c(-c3nc4cc(Cl)c(Cl)cc4[nH]3)c(-c3ccc(F)cc3)nc2s1
-36.8
